Exercise: state measured photoluminescence quantum yield for each of the compounds provided.
assay: photoluminescence quantum yield (fraction); solvent given as SMILES; conditions: in CCCO

{"columns": ["Compound", "photoluminescence quantum yield"],
 "data": [
  ["COc1ccc(C#Cc2ccc(C#N)cc2)cc1OC", 0.13],
  ["O=Cc1cc(O)ccc1O", 0.03],
  ["COc1ccc(/C=C2\\OC(=O)c3cc(N)ccc32)cc1", 0.46],
  ["O=C1c2ccccc2-c2ccc(N3CCN(c4ccccc4)CC3)c3cccc1c23", 0.021],
  ["O=C1c2ccccc2-c2cccc(O)c21", 0.021],
  ["COc1ccc(OC)c(C=O)c1", 0.31],
  ["ClC(Cl)=C1c2ccccc2C(C2(Cl)c3ccccc3C(=C(Cl)Cl)c3ccccc32)c2ccccc21 (stereo not drawn)", 0.19]
]}

Let us examine a further case.
The reported value for COCCOc1ccc(OCCOC)c(C=O)c1 in terms of photoluminescence quantum yield is 0.25

Where do these numbers come from? They come from the Deep4Chem optical property database.
